Where these numbers come from: patent US20210387949A1

measured_quantity: melting point (°C)

compound: Cc1ccc(S(=O)(=O)N2CCCC2)cc1 [Compound 3aa, 1-tosylpyrrolidine]
measured_quantity: melting point
units_label: °C
experimental_value: 129

compound: O=S(=O)(c1ccc(Cl)nc1)N1CCCC1 [Compound 3da]
measured_quantity: melting point
units_label: °C
experimental_value: 134

compound: Cc1ccc(S(=O)(=O)N2CCCC2C#N)cc1 (stereo not shown) [Compound 3ab, 1-tosylpyrrolidine-2-carbonitrile]
measured_quantity: melting point
units_label: °C
experimental_value: 102

compound: N#C[C@@H]1CCCN1S(=O)(=O)c1ccc(Cl)cc1 [Compound 3bc]
measured_quantity: melting point
units_label: °C
experimental_value: 115

compound: O=S(=O)(c1ccc(Cl)cc1)N1CCCC1 [Compound 3ba, 1-((4-chlorophenyl)sulfonyl) pyrrolidine]
measured_quantity: melting point
units_label: °C
experimental_value: 106

compound: Cc1ccc(S(=O)(=O)N2CCC[C@H]2C#N)cc1 [Compound 3ac, (S)-1-tosylpyrrolidine-2-carbonitrile]
measured_quantity: melting point
units_label: °C
experimental_value: 102

compound: N#CC1CCCN1S(=O)(=O)c1ccc(Cl)cc1 (stereo not shown) [Compound 3bb]
measured_quantity: melting point
units_label: °C
experimental_value: 115
